Target: ScCyk3
Test: SPOT peptide array binding signal intensity (averaged, normalized) (arbitrary units (background-subtracted, floor 0; scale differs between SH3 domains)); higher = stronger binding of the SH3 domain to the peptide
Classify as follows. Reported SPOT peptide array binding signal intensity greater than or equal to 30: criterion met. Reported SPOT peptide array binding signal intensity below: criterion not met.

# example entries with known answers
BINDER | LABEL_CLASS
MPAPPPPPPPPPGAF | criterion not met
AHFQPQRTAPKPPIS | criterion not met
PPLPRAPPVPPATFE | criterion not met

Exercise: Hi, just wondering whether "QFDLKMPSKPIHNLK" shows SPOT peptide array binding signal intensity of 30 or higher.
Solution: criterion not met

Exercise: Check the entry "GRSRLFPHSPLGRSS" : does SPOT peptide array binding signal intensity equal or exceed 30?
Solution: criterion met

Exercise: Is SPOT peptide array binding signal intensity for "VAPPPLPNRQLPNLD" at or above 30?
Solution: criterion not met

Exercise: Please check the record "ISNFVPPNLPMRRFK" and state if its SPOT peptide array binding signal intensity is at or above 30.
Solution: criterion not met

Exercise: Answer whether SPOT peptide array binding signal intensity of "ANNQGPPNLPARDKS" is greater than or equal to 30.
Solution: criterion not met

Exercise: Given "GATNNAPTLPKRKNP" , state whether its SPOT peptide array binding signal intensity is at least 30.
Solution: criterion not met

Exercise: Does the binder "DKKTKPTPPPKPSHL" have recorded SPOT peptide array binding signal intensity that is 30 or more?
Solution: criterion not met

Exercise: API: above_or_equal(metric=SPOT peptide array binding signal intensity, cutoff=30) for item "RPPRPPPKPLHLRTE"
Solution: criterion not met

Exercise: Is the recorded value of SPOT peptide array binding signal intensity equal to or greater than 30 for this binder? "ATKSASPTLPTRRSR"
Solution: criterion met

Exercise: Does "AGKRRLPLVRFKASD" have a reported SPOT peptide array binding signal intensity of at least 30?
Solution: criterion met

Exercise: Could you please find out whether "SLSRRRFSLPSMPNV" has SPOT peptide array binding signal intensity that meets 30 or exceeds it?
Solution: criterion met

Exercise: Check if SPOT peptide array binding signal intensity >= 30 (inclusive). Item: "EQEEIAPSLPSRNSI"
Solution: criterion not met
